# Tested on: BT-549 breast
# test: NCI tumour cell line growth inhibition, 48 h; in the data active = GI50 below about 0.43 µM; inactive = the rest
Classes used: active, inactive

                              smiles_record         system  answer_label
0  CN(C)c1ccc(/C=C(/NC(=O)c2ccccc2)c2nc3ccc(Cl)cc3[nH]2)cc1  BT-549 breast      inactive
1  COc1ccccc1-n1c(-c2cc(O)ccc2C)cn2c3c(=O)[nH]c(=O)n(C)c3nc12  BT-549 breast      inactive
2       OCCCN=NNc1ccc(-c2nc3ccccc3[nH]2)cc1  BT-549 breast      inactive
3     CCN(CC)CCCNc1cccc2c(SCc3ccccc3)ccnc12  BT-549 breast      inactive
4  NCCCNc1nc2ccccc2c2c(=O)c3cc(C(F)(F)F)ccc3sc12  BT-549 breast      inactive
5      CCCCCCCCCCCCCCCCCC1=NCCN1CS(=O)(=O)O  BT-549 breast      inactive
6  COC(=O)c1ccc2c(c1)nc(-c1cc3ccccc3[nH]c1=O)n2-c1cc(C(C)(C)C)[nH]n1  BT-549 breast      inactive
7  C=C1C[C@](OC)([C@H](O)C(=O)N[C@@H](OC)[C@@H]2C[C@@H](O)C(C)(C)[C@@H](C[C@@H](COC)OC)O2)O[C@H](C)[C@@H]1C  BT-549 breast        active
8  O=C(OCc1ccccc1)N1CCN(/[N+]([O-])=N/Oc2ccc([N+](=O)[O-])cc2[N+](=O)[O-])CC1  BT-549 breast      inactive

###

# Tested on: HOP-62 NSCLC
# test: NCI tumour cell line growth inhibition, 48 h
// values below are reported TGI
readout.kind: TGI

In [3]: df
Out[3]:
                                    molecule  result_value
 0          Cc1cc(N(CCC#N)S(C)(=O)=O)ccc1C=O      > 100 µM
 1  O=C(O)C1CCCN1Cc1cc2ccccc2c2ccccc12 (stereo not drawn)      > 100 µM
 2  COc1ccc(C(O)/C(=N\NC(N)=S)c2nc3ccc([N+](=O)[O-])cc3[nH]c2=O)cc1OC (stereo not drawn)      > 100 µM
 3  O=C(CC(=O)N1N=C(N2CCCCC2)CC1c1ccccc1)Nc1ccc(Cl)cc1 (stereo not drawn)      > 100 µM
 4  O=P(Oc1ccccc1)(Oc1ccccc1)Oc1c[nH]c2ccccc12       36.3 µM
 5  O=C(OCc1ccccc1)N1CCN(/[N+]([O-])=N/Oc2ccc([N+](=O)[O-])cc2[N+](=O)[O-])CC1         28 µM
 6            O=C1CCC[C@]2(CCC[C@@H](O)C2)N1      > 100 µM
 7                COc1ccc(N=C(C)c2ccncc2)cc1      > 100 µM
 8  Cc1cccc2c1Oc1ccccc1C2NC(=O)c1ccc([N+](=O)[O-])cc1 (stereo not drawn)      > 100 µM
 9  Cc1cccc(Oc2nccc(-c3c(-c4ccc(F)cc4)ncn3C3CCNCC3)n2)c1C       9.56 µM
10  COc1ccc(C2SCC(=O)N2c2ccc(-n3c(-c4ccccc4)nc4ccccc4c3=O)cc2)cc1OC (stereo not drawn)      > 100 µM
11  Clc1ccc(Oc2ccc(N=Cc3ccc(Cl)cc3Cl)cc2Cl)cc1      > 100 µM
12  OC12COc3ccccc3C1Oc1ccccc1C2 (stereo not drawn)      > 100 µM
13  COCC1CCCN1c1ccc(/C=C(/C#N)C(N)=S)cc1 (stereo not drawn)      > 100 µM
14  COc1cc(-c2oc3c(OC)c(O)c(OC)c(O)c3c(=O)c2OC)cc(O)c1OC      > 100 µM
15  CCCc1c(OC)c(=O)c2c(OC)cc(OC)c3c4c(OC)cc(OC)c5c(=O)c(OC)c(CCC)c(c1c23)c54         33 µM
16  COc1ccc2nc3ccc(OC)cc3c(S(=O)(=O)Cc3ccc([N+](=O)[O-])cc3)c2c1      > 100 µM
17  COc1ccc2nc3cccc([N+](=O)[O-])c3c(NCCO)c2c1     0.0668 µM
18    C=C/C=C(\NC(=O)C(Cl)(Cl)Cl)[Si](C)(C)C      > 100 µM
19       OCCCN=NNc1ccc(-c2nc3ccccc3[nH]2)cc1       71.3 µM
20  COc1ccc(-c2csc(=Nc3ccccc3)n2CC(O)c2ccc([N+](=O)[O-])cc2)cc1 (stereo not drawn)      > 100 µM
21          CCCCCCCC/C=C/CCCCCCCCC1=NCCN1CCO       29.4 µM
22  CC(C)(C)[Si](C)(C)OCC1OC(n2cnc3c(NC(=O)c4ccccc4)ncnc32)CC1O (stereo not drawn)       35.5 µM
23                     CSc1cnn(CCC#N)c(=O)n1      > 100 µM
24   O=C1Nc2cccc(Cl)c2/C1=C\c1c(Cl)nc2sccn12       33.8 µM
25      Cc1cc2cc3cc(C)c(N(C)C)cc3nc2cc1N(C)C       19.9 µM
26  COc1cc(NCCCCN=C(N)NC(N)=NC(C)C)c2ncccc2c1       28.6 µM
27  COc1ccc(N2C(=O)C3ON(C(C(N)=O)c4ccccc4)C(c4ccc(-c5ccccc5)cc4)C3C2=O)cc1 (stereo not drawn)       > 50 µM
